tested on: MIA PaCa-2 cells; test: Growth inhibition activity on KRAS-G12C mutant cell line (CellTiter-Glo 3D); type: cell-based, human; conditions: Homo sapiens, MIA PaCa-2, 72 h, MIA PaCa-2, 3-day culture with compound; Table 3-1
pIC50: −log10 of the molar value.
parameter: pIC50

[
  {
    "compound": "COCc1nc2c3c(c(C(F)(F)F)cc2n1C)-c1cccn2c(C(=O)c4cc(F)c(NC(=O)/C=C/CNC5(C)COC5)c(F)c4)cc(c12)CCN3C (single isomer, unassigned) [Example 92]",
    "parameter": "pIC50",
    "readout-value": 7.92
  },
  {
    "compound": "Cn1cnc2c3c(c(C(F)(F)F)cc21)-c1cccn2c(C(=O)c4cc(F)c(NC(=O)/C=C/CN5CC[C@H]5C(C)(C)O)c(F)c4)cc(c12)CCO3 [Example 162]",
    "parameter": "pIC50",
    "readout-value": 7.82
  },
  {
    "compound": "COc1cc2c(nc(C(F)(F)F)n2C)c2c1-c1cccn3c(C(=O)c4cc(F)c(NC(=O)/C=C/CN[C@H]5CCOC5)c(F)c4)cc(c13)CCN2C (single isomer, unassigned) [Example 168]",
    "parameter": "pIC50",
    "readout-value": 7.81
  },
  {
    "compound": "CN1CCc2cc(C(=O)c3cc(F)c(NC(=O)/C=C/CN4CCCC4)c(F)c3)n3cccc(c23)-c2c(C(F)(F)F)cc3c(ncn3C)c21 [Example 226]",
    "parameter": "pIC50",
    "readout-value": 7.87
  },
  {
    "compound": "Cc1nc2c3c(c(C(F)(F)F)cc2n1C)-c1cccc2c(C(=O)c4cc(F)c(NC(=O)/C=C/CN[C@@H]5CCOC5)c(F)c4)cn(c12)CCN3C (single isomer, unassigned) [Example 95]",
    "parameter": "pIC50",
    "readout-value": 7.94
  },
  {
    "compound": "COc1cc2c(ncn2C)c2c1-c1cccn3c(C(=O)c4cc(F)c(NC(=O)/C=C/CNC5(C)CC5)c(F)c4)cc(c13)CCN2C (single isomer, unassigned) [Example 160]",
    "parameter": "pIC50",
    "readout-value": 8.03
  },
  {
    "compound": "CN1CCc2cc(C(=O)c3cc(F)c(NC(=O)/C=C/CNCCO)c(F)c3)n3cccc(c23)-c2c(C(F)(F)F)cc3c(ncn3C)c21 [Example 96]",
    "parameter": "pIC50",
    "readout-value": 7.84
  }
]

Where do the numbers come from? From patent US20240262842A1.
